FYI, the data here is from the nanobody polyreactivity screen of Harvey et al. (2022).

Assay: yeast display, Sf9 membrane polyspecificity reagent, FACS + sequencing; frameworks hold sequencing errors
Measurement Kind: polyreactivity (PSR sort gate)

Check out these entries, answers already filled in.
QVQLVESGGVLVQAGGSLRLSCAASGSTSDCYDMGWYRQAPGKEWELVAAISTGDGITYYADSVKGRFTISRDNAKNTVYLHMNRLKPEDTAVYYCAAEVELSGGSDYWGQGTQVTVSS: low polyreactivity
QVQLVESGGGLVQAGGSLRLSCAASGIIFSYYAMGWYRQAPGKERELVADISSDGSTNYADSVKGRFTISRDNAKNTVYLQMNSLKPEDTAVYYCAAGYVHYGWFELDYWGQGTQVTVSS: low polyreactivity
QVQLLESGGGLVQAGGSLRLSCAASGSTFRYYAMGWYRQAPGKERELVAAISKSGGRTYYADSVKGRFTISRDNAKHTVYLQMNSLKPEDTAVYYCAADSKEVRYDYWGQGTQVTVSS: high polyreactivity
QVQLVESGGGLVQAGGSLRLSCAASGRIFATNAMGWDRPAPGKERELVATITRSAGRTYYADSVKGRFTISRDNAKNTVYFQMNSLKPEDTAVYYCAASYWDTEPGYREYDYWGQGTQVTVSS: low polyreactivity
QVQLVESGGGLVKAGGSLRLSCAASGRTFRYYDMGWYRQAPGKESELVAAIRTRGASTYYADSVKGRFTISRDNAKNTVYLQMNSLNPEDTAVYYCAKRAHFSSARHVYYIYDYWGQGTQVTVSS: low polyreactivity

Moving on to the next sequence.
Task item: Entry QVQLVQSGGGLVQAGGSLSLSCAASGSTFARNTMGWYRQAPGKERELVAAISYSGVTTYYADSVKGRFPISRDNEKNTVYLQMNSLKPEDTAVYYCAKLPYRRVDYGYWGQGTQVTVSS : reported polyreactivity (PSR sort gate) = ?
Reply: high polyreactivity
